Cited source for all entries: patent US9708267B2

molecular target: hPK, M2 (Homo sapiens, UniProt P14618); test: luminescent pyruvate kinase-luciferase coupled assay (qHTS); assay type: biochemical; conditions: Table 4; maximum response (activation); read-out: Max. Res.
Sequence (P14618 whole entry): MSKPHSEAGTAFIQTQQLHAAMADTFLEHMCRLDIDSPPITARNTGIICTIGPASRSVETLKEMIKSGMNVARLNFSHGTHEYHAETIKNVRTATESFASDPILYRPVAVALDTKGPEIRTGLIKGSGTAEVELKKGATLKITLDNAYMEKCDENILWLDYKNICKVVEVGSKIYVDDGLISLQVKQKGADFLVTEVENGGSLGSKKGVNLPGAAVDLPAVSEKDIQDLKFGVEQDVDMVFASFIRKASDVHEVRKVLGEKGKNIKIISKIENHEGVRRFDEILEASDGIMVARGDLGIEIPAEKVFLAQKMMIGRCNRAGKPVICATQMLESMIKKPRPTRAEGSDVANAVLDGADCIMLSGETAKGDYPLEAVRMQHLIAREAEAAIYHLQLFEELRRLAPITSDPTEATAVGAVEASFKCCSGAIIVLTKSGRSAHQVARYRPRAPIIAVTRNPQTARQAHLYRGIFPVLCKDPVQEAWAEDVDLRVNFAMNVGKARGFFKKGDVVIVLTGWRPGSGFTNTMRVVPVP
PARAMETER: Emax (%)
Numeric only. Scale: %

// below: answered molecules
Incoming: Which measured Emax belongs to "Cc1ccc(NS(=O)(=O)c2cc3c(cc2N2CCCC2)NC(=O)CC3)cc1C" , tested on hPK, M2 (Homo sapiens, UniProt P14618)?
Outgoing: 124

Incoming: Which measured Emax belongs to "Cc1ccc(NS(=O)(=O)c2cc3c(cc2N[C@@H](C)CO)NC(=O)CC3)cc1C" , tested on hPK, M2 (Homo sapiens, UniProt P14618)?
Outgoing: 131

Incoming: Which measured Emax belongs to "O=C1CCc2cc(S(=O)(=O)Nc3ccc(Cl)c(Cl)c3)ccc2N1" , tested on hPK, M2 (Homo sapiens, UniProt P14618)?
Outgoing: 126

Incoming: Which measured Emax belongs to "Cc1ccc(NS(=O)(=O)c2cc3c(cc2F)NC(=O)CC3)cc1Cl" , tested on hPK, M2 (Homo sapiens, UniProt P14618)?
Outgoing: 102

Incoming: Which measured Emax belongs to "CCN(CC)c1cc2c(cc1S(=O)(=O)Nc1ccc(C)c(C)c1)CCC(=O)N2" , tested on hPK, M2 (Homo sapiens, UniProt P14618)?
Outgoing: 111

Further cases:
Incoming: Which measured Emax belongs to "Cc1ccc(NS(=O)(=O)c2ccc3c(c2)CCC(=O)N3)cc1Cl" , tested on hPK, M2 (Homo sapiens, UniProt P14618)?
Outgoing: 122

Incoming: Which measured Emax belongs to "Cc1cc(NS(=O)(=O)c2ccc3c(c2)CCC(=O)N3)ccc1F" , tested on hPK, M2 (Homo sapiens, UniProt P14618)?
Outgoing: 121

Incoming: Which measured Emax belongs to Cc1ccc(NS(=O)(=O)c2cc3c(cc2NC(C)CO)NC(=O)CC3)cc1C (stereo not drawn) , tested on hPK, M2 (Homo sapiens, UniProt P14618)?
Outgoing: 110

Incoming: Which measured Emax belongs to Cc1ccc(NS(=O)(=O)c2cc3c(cc2N2CCC(N(C)C)C2)NC(=O)CC3)cc1C (stereo not drawn) , tested on hPK, M2 (Homo sapiens, UniProt P14618)?
Outgoing: 102

Incoming: Which measured Emax belongs to "N#Cc1cccc(NS(=O)(=O)c2ccc3c(c2)CCC(=O)N3)c1" , tested on hPK, M2 (Homo sapiens, UniProt P14618)?
Outgoing: 97

Incoming: Which measured Emax belongs to "Cc1ccc(NS(=O)(=O)c2cc3c(cc2Cl)NC(=O)C3)cc1C" , tested on hPK, M2 (Homo sapiens, UniProt P14618)?
Outgoing: 108

Incoming: Which measured Emax belongs to "Cc1ccc(Cl)cc1NS(=O)(=O)c1cc2c(cc1Cl)CCC(=O)N2" , tested on hPK, M2 (Homo sapiens, UniProt P14618)?
Outgoing: 109
